# Test system: SK-MEL-28 melanoma
# Assay: NCI-60 one-dose screen, 48 h
# Condition parameters: 10 µM unless noted
The panel holds about 83,000 compounds, 20% with a hit somewhere; the sample as a whole holds those more often. Activity calls are given as the source filed them. The calls were made as follows: active = growth percent below 10; inactive = the rest.
Allowed answers: active, inactive

Molecule	Answer label
CSc1nn2c(-c3cc4cc(Br)ccc4oc3=O)ccnc2c1C#N	inactive
CCOC(=O)CC1CSC(N/N=C/c2ccc(O)cc2)=N1 (stereo not drawn)	inactive
Cc1nc2c(c(-c3ccccc3)n1)Cc1c(ccc3ccccc13)O2	inactive
CC1=C([Se]CC(OC(=O)[C@@H](CO)NC(=O)OC(C)(C)C)C(=O)NCCCCCC(=O)OCc2ccccc2)C(=O)c2ccccc2C1=O (stereo partly drawn)	active
Cn1ccnc1C(=O)/C=C/c1ccc(C(=O)Nc2ccccc2F)cc1	inactive

Read the next record carefully.
Fill in: this test's call for CCN1C(=O)N(CC)C2C1NN=c1s/c(=C\c3ccc([N+](=O)[O-])cc3)c(=O)n12 (stereo not drawn) is ___
inactive

====

# Test system: SK-MEL-5 melanoma
# Assay: NCI-60 one-dose screen, 48 h
# Condition parameters: 10 µM unless noted
# Method: Growth inhibition of the SK-MEL-5 human tumor cell line is measured as a screen for anti-cancer activity. Cells are grown in 96 well plates and exposed to the test compound for 48 hours. Compounds are tested at a single concentration, which is 10^-5 M for most compounds. The reported endpoint is percent growth (GI% or GIPRCNT), where numbers from 0 - 100% represent growth inhibition, and numbers from -100% - 0 represent cell death. For example, a value of 40 represents 60% growth inhibition. […]
This is part of a sample that, as a whole, favours compounds with a hit. Of some 83,000 tested, about 20% had one in any assay. Activity calls are given as the source filed them. The calls were made as follows: active = growth percent below 10; inactive = the rest.
Allowed answers: true (active), false (inactive)

Fill in: this test's call for `NS(=O)(=O)Oc1cccc(-c2nc3sccn3c2-c2ccccc2)c1` is ___
false

Same lookup for COc1ccc(C(c2cc(OC)c(OC)c(OC)c2)n2cncn2)cc1O (centres undefined) , please.
false

Same lookup for `CCN(CC)c1ccc(/C=N/NC(=O)c2ccccc2Nc2ccnc(C(F)(F)F)c2)c(O)c1` , please.
true

Same lookup for `COc1ccc(/C(C)=C(\c2ccc(Cl)cc2)c2ccc(OCCCN(C)C)cc2)cc1` , please.
false

Same lookup for `Cc1c(C(=O)C(SC(=S)N2CCOCC2)SC(=S)N2CCOCC2)nnn1-c1ccc([N+](=O)[O-])cc1` , please.
false

Same lookup for `COc1ccc(/C=C\c2cc(OC)c(OC)c(OC)c2)cc1OCC(=O)Nc1nc2ccccc2s1` , please.
true

Same lookup for `COc1cc2ncnc(Nc3ccc(S(=O)(=O)Nc4cc(C)on4)cc3)c2cc1OCCCN1CCOCC1` , please.
false

Same lookup for `c1ccc(-c2nc(N3CCNCC3)c3oc(-c4ccccc4)nc3n2)cc1` , please.
true

Same lookup for `CCCS(=O)(=O)Nc1cccc(Nc2ncnc3cc(NC(=O)CCl)ccc23)c1Cl` , please.
true

Same lookup for O=C(Nc1ccc2c(c1)-c1ccccc1C2)C1CC(=O)N(c2ccc3c(c2)OCO3)C1 (centres undefined) , please.
false

Same lookup for `COc1ccc(-c2ccc(-c3ccc(C(=N)N)nc3)s2)cc1` , please.
false

Same lookup for `CN1CCN(Cc2ccc(NC(=O)c3cncc(C#Cc4cnc(N)c5ncccc45)c3)cc2Cl)CC1` , please.
false

Same lookup for `Cc1ccc(-c2nn(CC(=O)N3CCOCC3)c(N)c2C#N)cc1` , please.
false

Same lookup for `COc1cc2cc(Oc3ccc(NC(=O)Nc4ccc(Cl)c(Cl)c4)cc3)c(C)nc2cc1OCCN1CCCCC1` , please.
false

Same lookup for COc1ccc(C(=O)C2OC3=C(C(=O)CC(C)(C)C3)C2c2cccc(Oc3ccccc3)c2)cc1 (centres undefined) , please.
false

Same lookup for CC1=C([Se]CC(OC(=O)[C@@H](CO)NC(=O)OC(C)(C)C)C(=O)NCCCCCC(=O)OCc2ccccc2)C(=O)c2ccccc2C1=O (some centres undefined) , please.
true

Same lookup for `[2H]C([2H])([2H])Oc1c(F)cccc1/C=C/C(=O)/C=C(O)/C=C/c1cccc(F)c1OC([2H])([2H])[2H]` , please.
false

Same lookup for `COc1ccc(-c2cn(Cc3ccc4c(Br)cc(Br)c(O)c4n3)nn2)cc1` , please.
false

Same lookup for `COc1ccccc1NC(=O)n1c(=O)cc(C)c2ccc(O)cc21` , please.
false
